For each entry below, report its Emax value.
Molecular target: mutant BRAF V600E (Homo sapiens, UniProt P15056, V600E)
Test: BRAF V600E HiBiT Degradation Assay in A375.10 cells
Details: read-out: HiBIT-Degradation A375.10 BRAF 2 hours Emax

Data request, read-out Emax, for CCN(C)S(=O)(=O)Nc1ccc(F)c(Oc2ccc3ncn([C@H]4COC5(CCN(C(=O)CN6CCC(c7ccc(OC8CCC(=O)NC8=O)cc7OS(C)(=O)=O)CC6)CC5)C4)c(=O)c3c2)c1C#N (stereo partly drawn) [drawing 1204] < 60%

Quick check: Emax of CCN(C)S(=O)(=O)Nc1ccc(F)c(Oc2ccc3ncn([C@@H]4COC5(CCN(C(=O)CN6CCC(c7ccc(OC8CCC(=O)NC8=O)cc7S(=O)(=O)F)CC6)CC5)C4)c(=O)c3c2)c1C#N (stereo partly drawn) [drawing 1198] ? 60 to 95%

Any idea what its Emax is? The molecule is CCN(C)S(=O)(=O)Nc1ccc(F)c(Oc2ccc3ncn([C@H]4COC5(CCN(C(=O)CN6CCC(c7ccc(N8CCC(=O)NC8=O)cc7OS(C)(=O)=O)CC6)CC5)C4)c(=O)c3c2)c1C#N [drawing 1205] < 60%

Endpoint output: Emax of CCN(C)S(=O)(=O)Nc1ccc(F)c(Oc2ccc3ncn([C@@H]4COC5(CCN(C(=O)CN6CCC(c7ccc(OC8CCC(=O)NC8=O)cc7OS(C)(=O)=O)CC6)CC5)C4)c(=O)c3c2)c1C#N (stereo partly drawn) [drawing 1206] . Value? 60 to 95%

Fill in: Emax of CCN(C)S(=O)(=O)Nc1ccc(F)c(Oc2ccc3ncn([C@H]4COC5(CCN(C(=O)CN6CCC(c7ccc(NC8CCC(=O)NC8=O)cc7S(=O)(=O)F)CC6)CC5)C4)c(=O)c3c2)c1C#N (stereo partly drawn) [drawing 1197] is ___ 60 to 95%

# Emax lookup, item CCN(C)S(=O)(=O)Nc1ccc(F)c(Oc2ccc3ncn([C@H]4COC5(CCN(C(=O)CN6CCC(c7ccc(N8CCC(=O)NC8=O)cc7OS(=O)(=O)F)CC6)CC5)C4)c(=O)c3c2)c1C#N [drawing 1193] > 95%

Item CCN(C)S(=O)(=O)Nc1ccc(F)c(Oc2ccc3ncn([C@H]4COC5(CCN(C(=O)CN6CCC(c7ccc(C8CCC(=O)NC8=O)cc7OS(=O)(=O)F)CC6)CC5)C4)c(=O)c3c2)c1C#N (stereo partly drawn) [drawing 1190] has what recorded Emax? < 60%

# input molecule: CCN(C)S(=O)(=O)Nc1ccc(F)c(Oc2ccc3ncn([C@@H]4COC5(CCN(C(=O)CN6CCC(c7ccc(C8CCC(=O)NC8=O)cc7OS(C)(=O)=O)CC6)CC5)C4)c(=O)c3c2)c1C#N (stereo partly drawn) [drawing 1207] ; wanted: its Emax < 60%

Tell me the measured Emax of CCN(C)S(=O)(=O)Nc1ccc(F)c(Oc2ccc3ncn([C@@H]4COC5(CCN(C(=O)CN6CCC(c7ccc(NC8CCC(=O)NC8=O)cc7S(=O)(=O)F)CC6)CC5)C4)c(=O)c3c2)c1C#N (stereo partly drawn) [drawing 1209] , please. 60 to 95%

====

Target: mutant BRAF V600E (Homo sapiens, UniProt P15056, V600E)
Assay: BRAF V600E HiBiT Degradation Assay in A375.10 cells
Conditions: 2 hours, A375.10 cells; inflection point of the dose-response curve
measurement_kind: HiBIT-Degradation A375.10 BRAF 2 hours IP nM

CCN(C)S(=O)(=O)Nc1ccc(F)c(Oc2ccc3ncn([C@@H]4COC5(CCN(C(=O)CN6CCC(c7ccc(N8CCC(=O)NC8=O)cc7OS(C)(=O)=O)CC6)CC5)C4)c(=O)c3c2)c1C#N [drawing 1203]    *** (<= 1 μM is)
CCN(C)S(=O)(=O)Nc1ccc(F)c(Oc2ccc3ncn([C@H]4COC5(CCN(C(=O)CN6CCC(c7ccc(NC8CCC(=O)NC8=O)cc7S(=O)(=O)F)CC6)CC5)C4)c(=O)c3c2)c1C#N (stereo partly drawn) [drawing 1197]    *** (<= 1 μM is)
CCN(C)S(=O)(=O)Nc1ccc(F)c(Oc2ccc3ncn([C@@H]4COC5(CCN(C(=O)CN6CCC(c7ccc(OC8CCC(=O)NC8=O)cc7S(=O)(=O)F)CC6)CC5)C4)c(=O)c3c2)c1C#N (stereo partly drawn) [drawing 1198]    *** (<= 1 μM is)

====

Biological target: cellular cereblon (CRBN) (Homo sapiens, UniProt Q96SW2)
Test: NanoBRET Target Engagement Assay, competition with pomalidomide tracer in 293T.116 cells
Details: 2 hours incubation, 293T.116 cells; IP
measurement_kind: NanoBRET TE 293T.116 CRBN 2 hours IP nM

O=C1CCC(Oc2ccc(C3CCNCC3)c(S(=O)(=O)F)c2)C(=O)N1 (centres unmarked)    *** (<= 1 μM is ***)
CN(c1cccc(S(=O)(=O)F)c1)C1CCC(=O)NC1=O (centres unmarked)    *** (<= 1 μM is ***)
Cn1nc(N2CCC(=O)NC2=O)c2cccc(S(=O)(=O)F)c21    *** (<= 1 μM is ***)

====

Target: cellular cereblon (CRBN) (Homo sapiens)
Assay: NanoBRET Target Engagement Assay, competition with pomalidomide tracer in 293T.116 cells
Conditions: NanoBRET TE 293T.116 CRBN 24 hours IC50 nM, 24 hours incubation, 293T.116 cells
measurement_kind: IC50

I'd like to know its IC50. The compound in question is O=C1CCC(c2ccc(OS(=O)(=O)F)cc2)C(=O)N1 (centres unmarked) < 1000 nM

Find the recorded IC50 belonging to O=C1CCC(c2ccc(N3CCNCC3)c(OS(=O)(=O)F)c2)C(=O)N1 (centres unmarked) and report it. < 1000 nM

Requested read-out: IC50. Entry: O=C1CCC(CNc2cccc(OS(=O)(=O)F)c2)C(=O)N1 (centres unmarked) 1000 to 10000 nM

Name the reported IC50 value associated with the compound COc1ccc(OC2CCC(=O)NC2=O)cc1S(=O)(=O)F (centres unmarked) < 1000 nM

Report IC50 for O=C1CCC(c2ccc(S(=O)(=O)F)cc2)C(=O)N1 (centres unmarked) please. 1000 to 10000 nM

====

Molecular target: mutant BRAF V600E (Homo sapiens, UniProt P15056, V600E)
Test: BRAF V600E HiBiT Degradation Assay in A375.10 cells
Settings: read-out: HIBIT-Degradation A375.10 BRAF 2 hours DC50 nM; 2 hours, A375.10 cells
measurement_kind: DC50

Field request: DC50 | item: CCN(C)S(=O)(=O)Nc1ccc(F)c(Oc2ccc3ncn([C@@H]4COC5(CCN(C(=O)CN6CCC(c7ccc(C8CCC(=O)NC8=O)cc7OS(C)(=O)=O)CC6)CC5)C4)c(=O)c3c2)c1C#N (stereo partly drawn) [drawing 1207] > 10000 nM

DC50 lookup needed for CCN(C)S(=O)(=O)Nc1ccc(F)c(Oc2ccc3ncn([C@H]4COC5(CCN(C(=O)CN6CCC(c7ccc(OC8CCC(=O)NC8=O)cc7S(=O)(=O)F)CC6)CC5)C4)c(=O)c3c2)c1C#N (stereo partly drawn) [drawing 1200] , thanks. 1000 to 10000 nM

Look up DC50 for this molecule: CCN(C)S(=O)(=O)Nc1ccc(F)c(Oc2ccc3ncn([C@@H]4COC5(CCN(C(=O)CN6CCC(c7ccc(C8CCC(=O)NC8=O)cc7OS(=O)(=O)F)CC6)CC5)C4)c(=O)c3c2)c1C#N (stereo partly drawn) [drawing 1189] 1000 to 10000 nM

Which DC50 value is on record for CCN(C)S(=O)(=O)Nc1ccc(F)c(Oc2ccc3ncn([C@@H]4COC5(CCN(C(=O)CN6CCC(c7ccc(OC8CCC(=O)NC8=O)cc7S(=O)(=O)F)CC6)CC5)C4)c(=O)c3c2)c1C#N (stereo partly drawn) [drawing 1198] ? 1000 to 10000 nM

Report DC50 for CCN(C)S(=O)(=O)Nc1ccc(F)c(Oc2ccc3ncn([C@@H]4COC5(CCN(C(=O)CN6CCC(c7ccc(N8CCC(=O)NC8=O)cc7OS(=O)(=O)F)CC6)CC5)C4)c(=O)c3c2)c1C#N [drawing 1192] please. > 10000 nM

What value of DC50 has been reported for the following molecule? CCN(C)S(=O)(=O)Nc1ccc(F)c(Oc2ccc3ncn([C@@H]4COC5(CCN(C(=O)CN6CCN(c7ccc(N8CCC(=O)NC8=O)cc7OS(=O)(=O)F)CC6)CC5)C4)c(=O)c3c2)c1C#N [drawing 1195] > 10000 nM

Look at this molecule and give its reported DC50. CCN(C)S(=O)(=O)Nc1ccc(F)c(Oc2ccc3ncn([C@H]4COC5(CCN(C(=O)CN6CCC(c7ccc(OC8CCC(=O)NC8=O)cc7OS(=O)(=O)F)CC6)CC5)C4)c(=O)c3c2)c1C#N (stereo partly drawn) [drawing 1196] 1000 to 10000 nM

Sample CCN(C)S(=O)(=O)Nc1ccc(F)c(Oc2ccc3ncn([C@@H]4COC5(CCN(C(=O)CN6CCC(c7ccc(NC8CCC(=O)NC8=O)cc7S(=O)(=O)F)CC6)CC5)C4)c(=O)c3c2)c1C#N (stereo partly drawn) [drawing 1209] — what was its DC50? > 10000 nM

Fill blank: measured DC50 of the molecule CCN(C)S(=O)(=O)Nc1ccc(F)c(Oc2ccc3ncn([C@H]4COC5(CCN(C(=O)CN6CCC(c7ccc(NC8CCC(=O)NC8=O)cc7S(=O)(=O)F)CC6)CC5)C4)c(=O)c3c2)c1C#N (stereo partly drawn) [drawing 1197] is ____. > 10000 nM
